Target: GOPC, Q9HD26
Test: holdup assay
Set-up: key: below the threshold = too weak to quantify, mostly under pKd 3.1 to 4
Settings: plain residues with an end cap or a label only (N-terminal biotin on a linker: ado-ado)
Classify as follows. Reported pKd greater than or equal to 4: condition met. Reported pKd below: condition not met.

Ask: Item QMNQTLPVQV [EPHB3, P54753] with pKd of 4 or above?
Result: condition not met

Further cases:
Ask: Item DDENIRTSDV [PLEKHA2, Q9HB19] with pKd of 4 or above?
Result: condition not met

Ask: Item TKGPRGPTRV [SAPCD1, Q5SSQ6] with pKd of 4 or above?
Result: condition met

Ask: Item TACCHSETVV [TGFA, P01135] with pKd of 4 or above?
Result: condition not met

Ask: Item GQEEQVTTRL [TRPC5, Q9UL62] with pKd of 4 or above?
Result: condition met

Ask: Item LPHPHSTTRV [NLGN2, Q8NFZ4] with pKd of 4 or above?
Result: condition met

Ask: Item VKPQVSESKL [ACOT8, O14734] with pKd of 4 or above?
Result: condition not met

Ask: Item QGPVETESVV [SLC45A4, Q5BKX6] with pKd of 4 or above?
Result: condition not met

Ask: Item AKPSRISTVV [IQSEC2, Q5JU85] with pKd of 4 or above?
Result: condition met

Ask: Item RHGSCVETSL [TMEM151B, Q8IW70] with pKd of 4 or above?
Result: condition met

Reference source for all entries: paper PMC9482650
